Test: COS7 lysate on small-molecule microarray, probe aHis, 635 nm (AID 1123);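 note: z-score combines 667nm fluorescence intensity with signal-to-noise per printed compound spot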
Settings: COS7 cell lysate, fluorescence, higher = more signal
readout.kind: composite z-score
Answers are plain numbers.

Solved cases below.
COCCCNC(=O)[C@@]1(Cc2ccccc2N=[N+]=[N-])COC(c2ccc(OCCCO)cc2)=N1: 2.27
CO[C@H]1O[C@H](CO)[C@@H](OC(=O)Nc2ccc3c(c2)OCO3)[C@H](OC(=O)c2cc3ccccc3[nH]2)[C@H]1OC(=O)c1cc2ccccc2[nH]1: -0.0481
O=C1O[C@H](c2ccccc2)[C@H](c2ccccc2)N2[C@H]1[C@@H](C(=O)Nc1nc3ccccc3s1)[C@]1(C(=O)Nc3ccccc31)[C@H]2c1ccc(OCCO)cc1: 0.823
CCCCC=C[C@@H](NC(=O)c1ccc(-c2ccccc2)cc1)c1ccccc1: 1.08
C=CCOC(=O)[C@H]1[C@@H]2C(=O)O[C@@H](c3ccccc3)[C@@H](c3ccccc3)N2[C@@H](c2ccc(OCCOC(=O)[C@@H]3C[C@@H]4C(=O)N[C@@H](CCCCNC(C)=O)C(=O)N4[C@@H]3c3ccc(O)cc3)cc2)[C@]12C(=O)Nc1ccc(I)cc12: 1.69

Each compound below has a reported value. Please supply its composite z-score.
1. COC(=O)c1cn(C[C@@H](Cc2ccccc2)NC(=O)N[C@H](CO)CCc2oc(C(C)=O)c(C(=O)OC)c2C(=O)OC)nn1
2. COCCOC(=O)N1C(=O)[C@@]2(c3cc(C#CC4=CCCCC4)ccc31)[C@H](c1ccccc1OCCO)N1[C@H](c3ccccc3)[C@H](c3ccccc3)OC(=O)[C@H]1[C@@H]2C(=O)N1CCCCCCC1
3. O[C@@H](Cc1ccccc1)[C@@H](/C=C/C1CC1)N(CC#Cc1ccccc1)Cc1cccc(Cl)c1
4. [N-]=[N+]=Nc1ccccc1C[C@]1(C(=O)N2CCOCC2)N=C(c2ccc(OCCCO)cc2)O[C@H]1c1ccccc1
5. COC(=O)C1=CC(CCCO)=CC(C2CC2)N(C)C=C1C(=O)OC (stereo not drawn)
6. CC(C)N1CC=CC23O[C@@H]4C=CCOC(=O)[C@@H]4[C@H]2C(=O)N(CCCO)[C@@H]3C1=O (stereo partly drawn)

A.
0.5
2.23
-0.359
1.99
1.09
2.76

Respectfully, I request composite z-score for each entry included below.
1. C=CCOC(=O)[C@H]1[C@@H]2C(=O)O[C@@H](c3ccccc3)[C@@H](c3ccccc3)N2[C@@H](c2ccc(OCCOC(=O)[C@@H]3C[C@@H]4C(=O)N5CCC[C@H]5C(=O)N4[C@@H]3c3ccc(O)cc3)cc2)[C@]12C(=O)Nc1ccc(I)cc12
2. CN(C)CCCNC(=O)[C@@]1(c2ccc([N+](=O)[O-])cc2)CC(=O)N(CC23CC4CC(CC(C4)C2)C3)[C@@H]1c1ccc(CO)cc1I

A.
1: 0.897; 2: 2.86
